# method summary: physchem
# experimental parameters: buffer solution pH 6.8, 25 °C, pH 6.8, aqueous buffer, thermodynamic from solid
measured metric: solubility at 2 h (µg/mL)
Numbers only, in µg/mL.

Form: molecule = C=CC(=O)Nc1cc(Nc2nccc(-c3cnc4c(C)cccn34)n2)c(OC)cc1N(C)CCN(C)C [Compound 1] ; solubility at 2 h = 6750
